Biological target: BATF;JUNB (human;human, UniProt Q16520;P17275 1-125;148-347, |)
Sequence 1: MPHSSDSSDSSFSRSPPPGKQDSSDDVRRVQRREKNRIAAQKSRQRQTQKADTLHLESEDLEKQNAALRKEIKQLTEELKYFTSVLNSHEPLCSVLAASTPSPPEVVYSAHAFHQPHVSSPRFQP
Sequence 2: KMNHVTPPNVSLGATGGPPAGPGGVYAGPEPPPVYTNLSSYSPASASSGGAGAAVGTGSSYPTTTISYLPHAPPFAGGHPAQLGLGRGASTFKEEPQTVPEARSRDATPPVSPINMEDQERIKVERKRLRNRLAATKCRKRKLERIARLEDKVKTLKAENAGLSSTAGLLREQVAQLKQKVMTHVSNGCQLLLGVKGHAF
Assay: Spec-seq (EMSA and sequencing of bound and unbound bands); 100 nM BATFx-JUNB, 1 uM dsDNA library, 50 mM K acetate, 20 mM Tris-acetate, 10 mM Mg acetate, 100 ug/ml BSA, pH 7.9, 10% glycerol, 30 min on ice; native 9% PAGE at 4 C; low values mean tight binding
Details: protein: recombinant;recombinant; tags: N-terminal mCherry-TEV, cleaved off;C-terminal 6His; copies: 1;1; dsDNA, one strand shown
I'd appreciate it if you marked entries true (1) when binding signal is lower than -0.1 kT and false (0) when it is not.

Q: Threshold test, binding signal < -0.1 kT: GATAGTCTCATTTTCACCCCGTGAAAGGACGTCATTGTTCCATTACAGTATCTGT
A: true (1)

Q: In plain terms, does GATAGTCTCATTTTCACCCCGTGAAATGAGTTAGTTGTTCCATTACAGTATCTGT come in under -0.1 kT for binding signal?
A: false (0)

Q: Would you kindly verify if binding signal of GATAGTCTCATTTTCACCCCGTGAAATGAGTCAATTGTTCCATTACAGTATCTGT is strictly less than -0.1 kT?
A: true (1)

Q: Given the entry GATAGTCTCATTTTCACCCCGTGAAATGACTCCGTTGTTCCATTACAGTATCTGT , would its reported binding signal be below -0.1 kT?
A: false (0)

Q: Given the entry GATAGTCTCATTTTCACCCCGTGAAAATGCGTCATTGTTCCATTACAGTATCTGT , would its reported binding signal be below -0.1 kT?
A: true (1)

Q: For this sequence, is binding signal lower than -0.1 kT? GATAGTCTCATTTTCACCCCGTGAAAACGAGTCATTGTTCCATTACAGTATCTGT
A: true (1)

Q: Record GATAGTCTCATTTTCACCCCGTGAAATGGCGTCATTGTTCCATTACAGTATCTGT : is its binding signal strictly below -0.1 kT?
A: true (1)

Q: Is -0.1 kT strictly greater than the sequence's reported binding signal? sequence: GATAGTCTCATTTTCACCCCGTGAAACGGAGTCATTGTTCCATTACAGTATCTGT
A: true (1)

Q: binding signal under -0.1 kT? Item: GATAGTCTCATTTTCACCCCGTGAAAGTGTGTCATTGTTCCATTACAGTATCTGT
A: true (1)

Q: Lab note: binding signal threshold -0.1 kT. Does this sequence come in strictly under it? GATAGTCTCATTTTCACCCCGTGAAATGACTCTCTTGTTCCATTACAGTATCTGT
A: false (0)

Q: Bench note: check whether GATAGTCTCATTTTCACCCCGTGAAATGAGTCCATTGTTCCATTACAGTATCTGT shows binding signal below -0.1 kT
A: false (0)
